The reported numbers originate from patent US9187424B1.

- TEST SYSTEM: UniProtKB Q3SYC2
- Sequence (Q3SYC2 whole entry): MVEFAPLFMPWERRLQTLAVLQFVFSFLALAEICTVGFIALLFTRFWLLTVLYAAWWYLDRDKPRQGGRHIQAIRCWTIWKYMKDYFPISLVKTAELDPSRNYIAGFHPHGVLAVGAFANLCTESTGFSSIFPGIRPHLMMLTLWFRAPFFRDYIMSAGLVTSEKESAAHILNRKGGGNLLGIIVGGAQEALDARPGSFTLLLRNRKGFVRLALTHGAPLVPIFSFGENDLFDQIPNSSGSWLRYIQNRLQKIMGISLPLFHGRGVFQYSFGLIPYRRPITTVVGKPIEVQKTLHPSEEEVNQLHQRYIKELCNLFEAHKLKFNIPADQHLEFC
- PROCEDURE SUMMARY: MGAT LCMS Assay (human MGAT-2);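 also: diolein product quantified by LC/MS with positive APCI, expressed as peak area ratio versus an internal standard, and this ratio used to derive IC50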
- Format: biochemical
- CONDITION INFO: human MGAT-2 membranes expressed in Sf9 cells; 2-oleoylglycerol and oleoyl-Coenzyme A; read-out: h-MGAT2 IC50 (nM) LCMS Assay
ASSAY READOUT: IC50 (nM)

COc1ccc(C(=O)NC2=C(c3ccc(C)cc3)CC(c3cnn(CCCCC(F)(F)F)c3)(C(F)(F)F)NC2=O)cc1 (centres unmarked); 25
Cc1ccc(C2=C(C#N)C(=O)NC(c3ccc(OCCCC(F)(F)F)cc3)(C(F)(F)F)C2)cc1Cl (centres unmarked); 15

P. CCCCCn1cc(C2(C(F)(F)F)CC(c3ccc(C)cc3)=C(C#N)C(=O)N2)cn1 (centres unmarked)
Q. CCNC(=O)NC1=C(c2ccc(C)cc2)CC(c2ccc(OCCCC(F)(F)F)cc2)(C(F)(F)F)NC1=O (centres unmarked)
R. Cc1ccc(C2=C(NC(=O)c3ccccc3F)C(=O)NC(c3ccc(OCCCC(F)(F)F)cc3)(C(F)(F)F)C2)cc1 (centres unmarked)
Order the items by recorded IC50; the first position goes to the largest value. List the labels according to the requested ordering. P, Q, R
(P: 1530 nM, Q: 702 nM, R: 185 nM)

P. COc1ccc(NC(=O)C2=C(c3ccc(C)cc3)C(F)(F)C(c3ccc(OC)cc3)(C(F)(F)F)NC2=O)cc1 (centres unmarked)
Q. COc1ccc(NC(=O)C2=C(c3ccc(C)cc3)CC(C)(C(=O)NCCCC(F)(F)F)NC2=O)cc1 (centres unmarked)
R. O=C1NC(c2ccc(OCCCCCC(F)(F)F)cc2F)(C(F)(F)F)CC(c2ccc(CC(F)(F)F)cc2)=C1c1nn[nH]n1 (centres unmarked)
S. CCCCCc1ccc(C2(C(F)(F)F)CC(c3ccc(C)cc3)=C(C(=O)Nc3ccc(F)cc3)C(=O)N2)cc1 (centres unmarked)
T. COc1ccc(C2=C(C#N)C(=O)NC(c3ccc(OCCCC(F)(F)F)cc3)(C(F)(F)F)C2)cc1Cl (centres unmarked) [Example 223]
Please put the entries in order of rising IC50. // ordering of labels required in reply R, S, T, Q, P

A. Cc1ccc(C2=C(NC(=O)CS(C)(=O)=O)C(=O)NC(c3ccc(OCCCC(F)(F)F)cc3)(C(F)(F)F)C2)cc1 (centres unmarked)
B. CCOc1ccc(C2=C(c3nn[nH]n3)C(=O)NC(c3ccc(OCCCC(F)(F)F)cc3)(C(F)(F)F)C2)cc1 (centres unmarked) [Example 92]
Hi team, can someone confirm which has the larger IC50: A or B ? Thanks. Please indicate the selected item by its label. B

P. Cc1ccc(C2=C(C#N)C(=O)NC(c3ccc(OCCCC(F)(F)F)cc3)(C(F)(F)F)C2)cc1C (centres unmarked)
Q. CCCCCCCC#CC1(C(F)(F)F)CC(c2ccc(C)cc2)=C(NC(=O)c2nnn[nH]2)C(=O)N1 (centres unmarked)
Could you tell me which of these two has the smaller IC50 figure? First: P Second: Q Give the label under which the chosen entry appears. Q
(Q: 3 nM, P: 118 nM)
